Data origin: patent US20180244611A1

Could you please report measured pEC50 for the items listed next?
# SYSTEM_UNDER_TEST: F508delCFTR (Homo sapiens, UniProt P13569, DEL508-508)
# Construct: expressed in transfected cells; host or cells: CFBE41o- human lung-derived epithelial cells (CFBE41o-F508delCFTR-HRP), doxycycline-inducible
# Sequence (P13569 with tags, fused parts or gaps DEL508-508): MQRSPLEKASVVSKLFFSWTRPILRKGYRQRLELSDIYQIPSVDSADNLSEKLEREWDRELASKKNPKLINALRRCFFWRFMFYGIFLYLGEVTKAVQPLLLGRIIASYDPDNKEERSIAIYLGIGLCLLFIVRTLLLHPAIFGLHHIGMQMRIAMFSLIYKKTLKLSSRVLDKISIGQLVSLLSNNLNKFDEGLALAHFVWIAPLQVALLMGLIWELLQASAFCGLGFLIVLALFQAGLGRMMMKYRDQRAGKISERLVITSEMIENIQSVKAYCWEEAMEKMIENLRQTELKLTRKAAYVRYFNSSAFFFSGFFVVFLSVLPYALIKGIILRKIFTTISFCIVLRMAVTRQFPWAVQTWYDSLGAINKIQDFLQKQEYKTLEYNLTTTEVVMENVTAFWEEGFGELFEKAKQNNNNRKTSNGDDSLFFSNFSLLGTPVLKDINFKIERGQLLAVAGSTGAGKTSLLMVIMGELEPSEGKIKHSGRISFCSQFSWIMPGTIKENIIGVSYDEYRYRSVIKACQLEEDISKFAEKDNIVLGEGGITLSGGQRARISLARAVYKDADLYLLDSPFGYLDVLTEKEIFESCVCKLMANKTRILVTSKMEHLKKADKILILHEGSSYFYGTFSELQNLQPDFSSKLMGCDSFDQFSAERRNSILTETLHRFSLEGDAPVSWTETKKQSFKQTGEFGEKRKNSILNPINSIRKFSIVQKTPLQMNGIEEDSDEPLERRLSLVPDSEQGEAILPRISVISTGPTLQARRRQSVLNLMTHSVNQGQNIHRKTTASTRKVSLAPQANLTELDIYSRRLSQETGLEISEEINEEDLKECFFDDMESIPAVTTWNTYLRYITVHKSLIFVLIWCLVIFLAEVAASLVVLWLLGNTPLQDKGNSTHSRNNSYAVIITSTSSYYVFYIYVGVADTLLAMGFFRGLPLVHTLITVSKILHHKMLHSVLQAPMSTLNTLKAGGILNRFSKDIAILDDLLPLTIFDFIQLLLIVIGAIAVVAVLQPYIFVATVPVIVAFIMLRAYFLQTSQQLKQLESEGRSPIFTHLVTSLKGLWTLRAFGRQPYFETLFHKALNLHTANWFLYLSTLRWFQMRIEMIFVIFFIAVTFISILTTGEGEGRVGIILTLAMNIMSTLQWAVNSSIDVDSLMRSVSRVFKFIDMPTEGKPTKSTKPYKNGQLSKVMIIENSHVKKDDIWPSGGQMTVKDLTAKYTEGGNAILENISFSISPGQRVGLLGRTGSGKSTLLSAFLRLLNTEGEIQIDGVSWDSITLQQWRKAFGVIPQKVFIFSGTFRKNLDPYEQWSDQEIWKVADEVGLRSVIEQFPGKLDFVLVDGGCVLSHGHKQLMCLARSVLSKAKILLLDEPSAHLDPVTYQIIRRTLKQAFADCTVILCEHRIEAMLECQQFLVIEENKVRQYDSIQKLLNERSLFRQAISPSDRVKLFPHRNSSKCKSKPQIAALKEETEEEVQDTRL
# RUN_DESCRIPTION: Cell Surface Expression-Horse Radish Peroxidase (CSE-HRP) assay, test compound with co-corrector
# Type: cell-based
# ASSAY_CONDITIONS: with 2 μM co-corrector
pEC50: −log10 of the molar value.

# input May I ask what pEC50 has been recorded for COc1ccc(Br)c2c1C(C(=O)NS(=O)(=O)c1cccc3nccn13)CC2 (stereo not drawn) ?
# output > 5.52

# input May I ask what pEC50 has been recorded for Cc1ccccc1S(=O)(=O)NC(=O)[C@@]1(C)CCc2ccc(Cl)cc21 ?
# output 5.00 to 5.52

# input May I ask what pEC50 has been recorded for COc1ccc(CC(C)C)c2c1CCCC2C(=O)NS(=O)(=O)c1cccc2ccccc12 (stereo not drawn) ?
# output > 5.52

# input May I ask what pEC50 has been recorded for O=C(NS(=O)(=O)c1cccc2ccccc12)C1(Cc2ccccc2)CCc2c(Cl)cccc21 (stereo not drawn) ?
# output > 5.52

# input May I ask what pEC50 has been recorded for COc1cccc2c1CCC2C(=O)NS(=O)(=O)c1ccccc1C(=O)OC(C)C (stereo not drawn) ?
# output 5.00 to 5.52

# input May I ask what pEC50 has been recorded for COc1ccc(Br)c2c1CC[C@H]2C(=O)NS(=O)(=O)c1cccc2ccccc12 ?
# output > 5.52

# input May I ask what pEC50 has been recorded for CC[C@@]1(C(=O)NS(=O)(=O)c2cccc3ccccc23)CCCc2cccc(Cl)c21 ?
# output > 5.52

# input May I ask what pEC50 has been recorded for Cc1ccccc1S(=O)(=O)NC(=O)[C@]1(C)CCc2ccc(Cl)cc21 ?
# output > 5.52

# input May I ask what pEC50 has been recorded for COc1cccc2c1CCC2C(=O)NS(=O)(=O)c1ccc(O)cc1 (stereo not drawn) ?
# output ≤ 5.00

* * *

# SYSTEM_UNDER_TEST: F508delCFTR (Homo sapiens, UniProt P13569, DEL508-508)
# Construct: expressed in transfected cells; host or cells: CFBE41o- human lung-derived epithelial cells (CFBE41o-F508delCFTR-HRP), doxycycline-inducible
# RUN_DESCRIPTION: Cell Surface Expression-Horse Radish Peroxidase (CSE-HRP) assay, test compound with co-corrector
# Assay type: cell-based
# ASSAY_CONDITIONS: CSE-HRP assay, test compound with 2 μM co-corrector
Could you please report measured EC50 for the items listed next?

# input May I ask what EC50 has been recorded for Cc1ccccc1S(=O)(=O)NC(=O)C1CCc2c(-c3c[nH]nc3C)cccc21 (stereo not drawn) ?
# output ≥ 10 µM

# input May I ask what EC50 has been recorded for CCC1(C(=O)NS(=O)(=O)Cc2ccccc2)CCc2c(Cl)cccc21 (stereo not drawn) ?
# output ≥ 10 µM

# input May I ask what EC50 has been recorded for CCC1(C(=O)NS(=O)(=O)c2cccc(N3CCOCC3)c2C)CCc2c(Cl)cccc21 (stereo not drawn) ?
# output < 3 µM

# input May I ask what EC50 has been recorded for COc1ccc(Br)c2c1C(C(=O)NS(=O)(=O)c1cccn3cnnc13)CC2 (stereo not drawn) ?
# output 3 to 10 µM

# input May I ask what EC50 has been recorded for Cc1cc(-c2cccc3c2CCC3C(=O)NS(=O)(=O)c2ccccc2C)ccn1 (stereo not drawn) ?
# output ≥ 10 µM

# input May I ask what EC50 has been recorded for COc1ccc(-c2ccncc2)c2c1C(C(=O)NS(=O)(=O)c1cccc3ccccc13)CCC2 (stereo not drawn) ?
# output < 3 µM

# input May I ask what EC50 has been recorded for N#CC1(C(=O)NS(=O)(=O)c2cccc3ccccc23)CCCc2cccc(Cl)c21 (stereo not drawn) ?
# output 3 to 10 µM

# input May I ask what EC50 has been recorded for CCC1(C(=O)NS(=O)(=O)C2CCCCC2)CCc2c(Cl)cccc21 (stereo not drawn) ?
# output ≥ 10 µM

# input May I ask what EC50 has been recorded for CCC1(C(=O)NS(=O)(=O)c2cccc(Cl)c2C(=O)OC)CCc2c(Cl)cccc21 (stereo not drawn) ?
# output < 3 µM

# input May I ask what EC50 has been recorded for COc1ccc2c(n1)CCC2C(=O)NS(=O)(=O)c1cccc2ccccc12 (stereo not drawn) ?
# output 3 to 10 µM

# input May I ask what EC50 has been recorded for COc1cccc2c1C(C(=O)NS(=O)(=O)c1cccc3ccccc13)CC2 (stereo not drawn) ?
# output < 3 µM

# input May I ask what EC50 has been recorded for Cc1ccccc1S(=O)(=O)NC(=O)C1Cc2ccccc21 (stereo not drawn) ?
# output ≥ 10 µM

# input May I ask what EC50 has been recorded for CCC1(C(=O)NS(=O)(=O)c2c(Cl)nc3sccn23)CCc2c(Cl)cccc21 (stereo not drawn) ?
# output ≥ 10 µM

# input May I ask what EC50 has been recorded for COc1ccc(-c2ccc(C(F)(F)F)nc2)c2c1C(C(=O)NS(=O)(=O)c1cccc3ccccc13)CCC2 (stereo not drawn) ?
# output 3 to 10 µM

# input May I ask what EC50 has been recorded for CCC1(C(=O)NS(=O)(=O)c2c(C)cccc2C(F)(F)F)CCc2c(Cl)cccc21 (stereo not drawn) ?
# output ≥ 10 µM

# input May I ask what EC50 has been recorded for CCC1(C(=O)NS(=O)(=O)c2c(C)cccc2Cl)CCc2c(Cl)cccc21 (stereo not drawn) ?
# output ≥ 10 µM

# input May I ask what EC50 has been recorded for Cc1ccccc1S(=O)(=O)NC(=O)C1CCc2c(-c3ccsc3)cccc21 (stereo not drawn) ?
# output 3 to 10 µM

# input May I ask what EC50 has been recorded for CCC1(C(=O)NS(=O)(=O)c2cccc(Cl)c2C(=O)O)CCc2c(Cl)cccc21 (stereo not drawn) ?
# output ≥ 10 µM
